The reported measurements were obtained from ChEMBL document CHEMBL1155148.

run.description: Tmax in human at 400 mg, po once daily after 4 days
Type: ADME, organism-based
test.parameters: in vivo
quantity.measured: Tmax (h)
Answers are plain numbers, in h.

Sure, the documented Tmax for COc1c(N2C[C@@H]3CCCN[C@@H]3C2)c(F)cc2c(=O)c(C(=O)O)cn(C3CC3)c12 [MOXIFLOXACIN] is 1.97

----------
run.description: AUC (0 to 24 hrs) in human at 400 mg, po once daily after 4 days
Type: ADME, organism-based
Set-up: dose 400 mg, time < 24 hr, route oral
test.parameters: plasma
quantity.measured: AUC at 24 h (ng·h/mL)
Give bare numbers, in ng·h/mL.

Sure, the documented AUC at 24 h for COc1c(N2C[C@@H]3CCCN[C@@H]3C2)c(F)cc2c(=O)c(C(=O)O)cn(C3CC3)c12 [MOXIFLOXACIN] is 39400
